test: Example 3 urinary pharmacokinetics, normal hepatic function vs hepatic impairment; type: in vivo, human; conditions: both sexes, human, urine, other: intranasal (drug-soaked pledgets in the nasal cavity), 160 mg, subjects with normal hepatic function, Table 29; read-out: Renal Clearance, geometric mean (converted)
readout-label: CL renal
// return the numeric value with its unit appended

Problem: What does the data say about its CL renal? Entry: COC(=O)[C@H]1[C@@H](OC(=O)c2ccccc2)C[C@@H]2CC[C@H]1N2C [Cocaine, cocaine, reference compound]
Solution: 19.5 mL/min

---

Assay: Example 2 urinary pharmacokinetics, normal renal function vs severe renal impairment
Details: human, urine and plasma, inhaled or intranasal, 160 mg, Renal Clearance (mean), normal renal function; single intranasal 160 mg cocaine HCl
Method: For the urine analysis of cocaine, BE, and EME, individual urinary recoveries for each analyte were determined over each collection interval as the product of the urine concentration times the urine volume. The total recoveries were determined as the sum of the recoveries over all the intervals. Total urinary recoveries were also expressed as the percentage of the administered dose, after correction for the molecular weight of each analyte. […]
readout-label: CL renal
// return the numeric value with its unit appended

Problem: What does the data say about its CL renal? Entry: COC(=O)[C@H]1[C@@H](OC(=O)c2ccccc2)C[C@@H]2CC[C@H]1N2C [Cocaine, cocaine, reference compound]
Solution: 33.3 mL/min

# credit: patent US10413505B1
